Data origin: the RNAGym collection of RNA variant scans (doi:10.1101/gr.219683.116)

B1: mRNA-splicing (parent)
chain: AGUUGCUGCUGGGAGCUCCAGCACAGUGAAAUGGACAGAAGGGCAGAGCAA

# Variants of: B1
# experimental details: exon inclusion enrichment index; higher = more inclusion; WT1 exon 5 minigene, HEK293
Note to self: values exactly at 0.8 are 1. So exon inclusion enrichment index at or above 0.8 is 1, below is 0.

Consider the worked cases shown below.
>>> print(df.to_string())
             variant_notation  group_label
0       G5U G8U C9U A47U G48A            0
1                        A47C            0
2  G5C C6G U7C U10C A23G C24G            1

Ask: Confirm if exon inclusion enrichment index reported for the variant G5C C6A U7C G8A U10A G11C G12A is 0.8 or above.
Result: 0

Ask: Say whether G5A C6U U7A G8U C9A G28U shows exon inclusion enrichment index of 0.8 or more.
Result: 0
